# key: entry, value: AmyQ secretion efficiency
System: Bacillus subtilis DB104 (SP-AmyQ fusion secretion)
Assay: AmyQ secretion efficiency, weighted average sort bin (1 = best secretion, 10 = worst) (bin number (weighted average, 1-10)); higher = lower secretion efficiency
testReadout: AmyQ secretion efficiency

| sequenceRecord | systemUnderTest | resultNumber |
| --- | --- | --- |
| MKRKLKRKKAISALSLGLLVSAPTASFAAES | Bacillus subtilis DB104 (SP-AmyQ fusion secretion) | 4.1 |
| MKKWIYIMSFMIVVLVLSIAGIGGFSVHAASS | Bacillus subtilis DB104 (SP-AmyQ fusion secretion) | 4 |
| MKKVLMAFIICLSLILSVLAAPPSGAKSESV | Bacillus subtilis DB104 (SP-AmyQ fusion secretion) | 3.92 |

----------
Test system: Bacillus subtilis DB104 (SP-AmyQ fusion secretion)
Test: AmyQ secretion efficiency, weighted average sort bin (1 = best secretion, 10 = worst) (bin number (weighted average, 1-10)); higher = lower secretion efficiency
Quick reference for AmyQ secretion efficiency among some sequences

| sequenceRecord | AmyQ secretion efficiency |
| --- | --- |
| MKVLLSALLLLLFAFEPSASEKKL | 5.89 |
| MKVLLSALLLLLFAFEPSGSGKKL | 5.88 |
| MGRFLIGAGVAAVILSGWFIADHQTHSQEM | 6.17 |
| MRSYIKVLTMCFLGLILFVPTPLADNS | 5.93 |

----------
Tested on: Bacillus subtilis DB104 (SP-AmyQ fusion secretion)
Assay: AmyQ secretion efficiency, weighted average sort bin (1 = best secretion, 10 = worst) (bin number (weighted average, 1-10)); higher = lower secretion efficiency
Let's look at some sequences and their measured AmyQ secretion efficiency.
testReadout: AmyQ secretion efficiency

| sequenceRecord | testReadout | result |
| --- | --- | --- |
| MLKKIALTLCPAIVGSLLFFTAPRSAHVS | AmyQ secretion efficiency | 5.22 |
| MMKKLFHSTLIVLLFFSFFGVQPVASSASTIHAKKQ | AmyQ secretion efficiency | 2.41 |
| MRKTIFAFLTGLMMFGTITASPSTASASPD | AmyQ secretion efficiency | 2.04 |
| MKKRKRRNFKRFIAAFLVLALMISLVPADTLAKST | AmyQ secretion efficiency | 1.68 |
| MKKIGLLFMLCLAALFTIGFPAQQLDAAEA | AmyQ secretion efficiency | 2.04 |
| MKKRLIGFLVLVPALIMSGITLIECNKK | AmyQ secretion efficiency | 6.67 |
| MGSRTIWTIILGALLVCCIAVAYTLTKSQAGASSS | AmyQ secretion efficiency | 5.01 |

----------
Test system: Bacillus subtilis DB104 (SP-AmyQ fusion secretion)
Test: AmyQ secretion efficiency, weighted average sort bin (1 = best secretion, 10 = worst) (bin number (weighted average, 1-10)); higher = lower secretion efficiency
testReadout: AmyQ secretion efficiency

| sequenceRecord | result |
| --- | --- |
| MKSKGSIMACLILFSFTITTFINTETISDFSN | 6.98 |
| MRKKRVITCVMAASLTLGSLLPAGYASTKED | 2.82 |
| MKSKGSIMACLILFSFTITTFINTETISCFSN | 7.73 |
| MKKLVLCVSILAVILRKKALTQLS | 7.41 |
| MFKKHTISLLIIFLLASAVLAKPIEARKK | 2.26 |
| MKTLRTLCVLMILSGVIFFGLKLDAKDI | 7.62 |
| MGLGGKLSVAVAASFMSLSISLPGVQAAEG | 1.01 |
| MKRLLSTLLIGIMLLTFAPSAFAAED | 2.37 |

Reference source: the supplement of paper PMC9942255
